# systemTested: CsMYC2-His (Citrus sinensis (Newhall orange), UniProt V4SX11 1-519)
# Sequence (V4SX11 entry or part of it): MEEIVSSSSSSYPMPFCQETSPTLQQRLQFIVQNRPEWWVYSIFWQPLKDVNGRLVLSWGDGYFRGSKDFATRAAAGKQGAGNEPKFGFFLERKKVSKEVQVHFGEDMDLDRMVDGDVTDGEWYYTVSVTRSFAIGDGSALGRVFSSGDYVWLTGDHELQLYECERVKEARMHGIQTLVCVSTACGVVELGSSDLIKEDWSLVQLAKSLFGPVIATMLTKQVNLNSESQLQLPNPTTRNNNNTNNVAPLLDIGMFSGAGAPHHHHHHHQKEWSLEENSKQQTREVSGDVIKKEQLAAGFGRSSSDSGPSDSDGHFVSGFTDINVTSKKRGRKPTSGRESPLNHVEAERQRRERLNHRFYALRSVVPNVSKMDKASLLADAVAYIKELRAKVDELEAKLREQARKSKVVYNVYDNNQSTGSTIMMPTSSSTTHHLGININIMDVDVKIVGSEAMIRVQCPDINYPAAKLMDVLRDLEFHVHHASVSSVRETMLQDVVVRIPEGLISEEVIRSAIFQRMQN
# assayDetails: BLI; BLI: PBS, 100 nM biotin probe on SA sensors, CsMYC2-His 62.5-1000 nM, 1:1 fit. DNA pull-down: probe bound to beads in 10 mM Tris-HCl pH 7.5, 1 mM EDTA, 1 M NaCl, 0.1% Tween-20 at RT, then protein 1 h on ice. EMSA: as in Yue et al. 2019, buffer not given
# experimentalParameters: protein: recombinant; tags: His (pET30A); chain copies: 2; label: 3' biotin
assayMetric: Kd

[[record]]
binder = "CsCCD4b-probe (dsDNA) DNA 1: GTACCATACAACTGTGGCACCATAGCTGGATC DNA 2: GATCCAGCTATGGTGCCACAGTTGTATGGTAC"
valuereported = "58 nM"

